Overview of recorded IC50 for various compounds
System: TNF-α
Experiment: Whole blood assay, LPS stimulation, MSD cytokine detection
Assay type: cell-based
Details: fresh whole bovine blood
MEASURE: IC50 (µM)

COMPOUND	EXPERIMENTAL_TARGET	MEASURE	OBS_VALUE
CC[C@H]1OC(=O)[C@H](C)[C@@H](O[C@H]2C[C@@](C)(OC)[C@](O)(CNC3CC3)[C@H](C)O2)[C@H](C)[C@@H](O[C@@H]2O[C@H](C)C[C@H](NC)[C@H]2Oc2ccccc2)[C@](C)(O)C[C@@H](C)CN[C@H](C)[C@@H](O)[C@]1(C)O [Example E-125]	TNF-α	IC50	5
CCCNC[C@]1(O)[C@H](C)O[C@@H](O[C@H]2[C@H](C)[C@@H](O[C@@H]3O[C@H](C)C[C@H](NC)[C@H]3Oc3ccc(F)cc3)[C@](C)(O)C[C@@H](C)CN(C)[C@H](C)[C@@H](O)[C@](C)(O)[C@@H](CC)OC(=O)[C@@H]2C)C[C@@]1(C)OC [Example E-153]	TNF-α	IC50	21
CC[C@H]1OC(=O)[C@H](C)[C@@H](O)[C@H](C)[C@@H](O[C@@H]2O[C@H](C)C[C@H](N(C)C(=O)N3CCOc4ccccc43)[C@H]2Oc2ccccc2)[C@](C)(O)C[C@@H](C)CN[C@H](C)[C@@H](O)[C@]1(C)O [Example D-3]	TNF-α	IC50	20
CC[C@H]1OC(=O)[C@H](C)[C@@H](O[C@H]2C[C@@](C)(OC)[C@@H](O)[C@H](C)O2)[C@H](C)[C@@H](O[C@@H]2O[C@H](C)C[C@H](N(C)C)[C@H]2Oc2cnc3ccccc3c2)[C@](C)(O)C[C@@H](C)CN(C)[C@H](C)[C@@H](O)[C@]1(C)O [Example A-28]	TNF-α	IC50	3

###

Test system: P. multocida 46572
Assay: In vivo mouse lung infection challenge model (murine)
Parameters: species or system CD-1 female mice
Conditions: 46572, sc, 20 mg/kg, 240 h
Entries whose % Survival is below 30% take 1.0; entries at or above 30% take 0.0.

COMPOUND	QUALITATIVE_LABEL
CC[C@H]1OC(=O)[C@H](C)[C@@H](O)[C@H](C)[C@@H](O[C@@H]2O[C@H](C)C[C@H](N(C)C(=O)N(C)c3cc(C)n(C)n3)[C@H]2Oc2ccccc2)[C@](C)(O)C[C@@H](C)CN[C@H](C)[C@@H](O)[C@]1(C)O [Example C-26]	1.0
CCCNC[C@]1(O)[C@H](C)O[C@@H](O[C@H]2[C@H](C)[C@@H](O[C@@H]3O[C@H](C)C[C@H](NC)[C@H]3Oc3ccc(F)cc3)[C@](C)(O)C[C@@H](C)CN[C@H](C)[C@@H](O)[C@](C)(O)[C@@H](CC)OC(=O)[C@@H]2C)C[C@@]1(C)OC [Example E-1]	0.0
CCCNC[C@]1(O)[C@H](C)O[C@@H](O[C@H]2[C@H](C)[C@@H](O[C@@H]3O[C@H](C)C[C@H](N(C)C)[C@H]3Oc3ccccc3)[C@](C)(O)C[C@@H](C)CN[C@H](C)[C@@H](O)[C@](C)(O)[C@@H](CC)OC(=O)[C@@H]2C)C[C@@]1(C)OC [Example E-3]	0.0
CC[C@H]1OC(=O)[C@H](C)[C@@H](O[C@H]2C[C@@](C)(OC)[C@](O)(CN3CCOCC3)[C@H](C)O2)[C@H](C)[C@@H](O[C@@H]2O[C@H](C)C[C@H](N(C)C)[C@H]2Oc2ccccc2)[C@](C)(O)C[C@@H](C)CN[C@H](C)[C@@H](O)[C@]1(C)O [Example H-3]	1.0
CC[C@H]1OC(=O)[C@H](C)[C@@H](O)[C@H](C)[C@@H](O[C@@H]2O[C@H](C)C[C@H](N(C)C(=O)N(C)c3cc(C)n(C)n3)[C@H]2Oc2ccccc2)[C@](C)(O)C[C@@H](C)CN(C)[C@H](C)[C@@H](O)[C@]1(C)O [Example C-30]	1.0
CC[C@H]1OC(=O)[C@H](C)[C@@H](O)[C@H](C)[C@@H](O[C@@H]2O[C@H](C)C[C@H](N(C)C(=O)N(C)c3ccccc3)[C@H]2Oc2ccc(OC)cc2)[C@](C)(O)C[C@@H](C)CN[C@H](C)[C@@H](O)[C@]1(C)O [Example C-1]	0.0
CC[C@H]1OC(=O)[C@H](C)[C@@H](O)[C@H](C)[C@@H](O[C@@H]2O[C@H](C)C[C@H](N(C)C(=O)N(C)c3ccccc3)[C@H]2Oc2ccccc2)[C@](C)(O)C[C@@H](C)CN(C)[C@H](C)[C@@H](O)[C@]1(C)O [Example C-12]	1.0

###

System: TNF-α
Assay: Whole blood assay, LPS stimulation, MSD cytokine detection
Assay type: cell-based
Details: fresh whole bovine blood
Experimental: Compounds of the invention were evaluated against a positive control for their ability to inhibit LPS-induced IL-1p and TNF-α as an overall evaluation of relative potency and modulation of target pathways. […]
Overview of recorded IC50 for various compounds

INPUT_SMILES	IC50 [µM]
CCCNC[C@]1(O)[C@H](C)O[C@@H](O[C@H]2[C@H](C)[C@@H](O[C@@H]3O[C@H](C)C[C@H](NC)[C@H]3Oc3cc(F)c(OC)c(F)c3)[C@](C)(O)C[C@@H](C)CN[C@H](C)[C@@H](O)[C@](C)(O)[C@@H](CC)OC(=O)[C@@H]2C)C[C@@]1(C)OC	18
CC[C@H]1OC(=O)[C@H](C)[C@@H](O)[C@H](C)[C@@H](O[C@@H]2O[C@H](C)C[C@H](N(C)C(=O)N(C)c3ccccc3)[C@H]2Oc2ccc(OC)cc2)[C@](C)(O)C[C@@H](C)CN(C)[C@H](C)[C@@H](O)[C@]1(C)O	44

###

Tested on: TNF-α
Experiment: Whole blood assay, LPS stimulation, MSD cytokine detection
Type: cell-based
Details: fresh whole bovine blood

INPUT_SMILES	EXPERIMENTAL_TARGET	IC50
CC[C@H]1OC(=O)[C@H](C)[C@@H](O)[C@H](C)[C@@H](O[C@@H]2O[C@H](C)C[C@H](N(C)C(=O)N(C)c3ccccc3)[C@H]2Oc2ccc(F)c(C(F)(F)F)c2)[C@](C)(O)C[C@@H](C)CN(C)[C@H](C)[C@@H](O)[C@]1(C)O	TNF-α	22 µM
CCCNC[C@]1(O)[C@H](C)O[C@@H](O[C@H]2[C@H](C)[C@@H](O[C@@H]3O[C@H](C)C[C@H](N(C)C)[C@H]3Oc3cccc(OC)c3)[C@](C)(O)C[C@@H](C)CN[C@H](C)[C@@H](O)[C@](C)(O)[C@@H](CC)OC(=O)[C@@H]2C)C[C@@]1(C)OC	TNF-α	5 µM
CC[C@H]1OC(=O)[C@H](C)[C@@H](O[C@H]2C[C@@](C)(OC)[C@](O)(CNCCCOC)[C@H](C)O2)[C@H](C)[C@@H](O[C@@H]2O[C@H](C)C[C@H](N(C)C)[C@H]2Oc2ccccc2)[C@](C)(O)C[C@@H](C)CN[C@H](C)[C@@H](O)[C@]1(C)O	TNF-α	12 µM
CC[C@H]1OC(=O)[C@H](C)[C@@H](O[C@H]2C[C@@](C)(OC)[C@](O)(CN(C)CCN(C)C)[C@H](C)O2)[C@H](C)[C@@H](O[C@@H]2O[C@H](C)C[C@H](N(C)C)[C@H]2Oc2ccccc2)[C@](C)(O)C[C@@H](C)CN[C@H](C)[C@@H](O)[C@]1(C)O	TNF-α	34 µM

###

Overview of recorded % Survival for various compounds
Tested on: P. multocida 46572
Assay: In vivo mouse lung infection challenge model (murine)
Set-up: species or system CD-1 female mice
Conditions: 46572, sc, 20 mg/kg, 240 h

INPUT_SMILES	% Survival [%]
CC[C@H]1OC(=O)[C@H](C)[C@@H](O)[C@H](C)[C@@H](O[C@@H]2O[C@H](C)C[C@H](NC)[C@H]2Oc2ccc(F)cc2)[C@](C)(O)C[C@@H](C)CN[C@H](C)[C@@H](O)[C@]1(C)O	0
CCCNC[C@]1(O)[C@H](C)O[C@@H](O[C@H]2[C@H](C)[C@@H](O[C@@H]3O[C@H](C)C[C@H](NC)[C@H]3Oc3ncc(Cl)cn3)[C@](C)(O)C[C@@H](C)CN[C@H](C)[C@@H](O)[C@](C)(O)[C@@H](CC)OC(=O)[C@@H]2C)C[C@@]1(C)OC	22
